Experiment: Cytotoxicity against mouse splenocytes assessed as cell viability at 7.8 ug/ml after 88 hrs by MTT assay
Type: cell-based, Splenocyte
Experimental Conditions: read-out: Activity

- Smiles Code: "CC(C)CCC[C@@H](C)[C@H]1CC[C@H]2C3=C(CC[C@]12C)[C@@]1(C)CC[C@H](O)[C@@H](C)[C@@H]1CC3"
  viability at 88 h, 7.8 ug/ml, %: 80
- Smiles Code: "O=C(O)c1cc(Br)c(Br)[nH]1"
  viability at 88 h, 7.8 ug/ml, %: 99

====

Experiment: Cytotoxicity against mouse splenocytes assessed as cell viability at 250 ug/ml after 88 hrs by MTT assay
Format: cell-based, Splenocyte
Experimental Conditions: read-out: Activity
Readout: viability at 88 h, 250 ug/ml (%)

- Smiles Code: "O=C(O)c1cc(Br)c(Br)[nH]1"
  Readout: "viability at 88 h, 250 ug/ml"
  Reported Measurement: 0
- Smiles Code: "CC(C)CCC[C@@H](C)[C@H]1CC[C@H]2C3=C(CC[C@]12C)[C@@]1(C)CC[C@H](O)[C@@H](C)[C@@H]1CC3"
  Readout: "viability at 88 h, 250 ug/ml"
  Reported Measurement: 10

====

Experiment: Cytotoxicity against mouse splenocytes assessed as cell viability at 500 ug/ml after 88 hrs by MTT assay
Format: cell-based, Splenocyte
Experimental Conditions: read-out: Activity
Readout: viability at 88 h, 500 ug/ml

- Smiles Code: "O=C(O)c1cc(Br)c(Br)[nH]1"
  Readout: "viability at 88 h, 500 ug/ml"
  Reported Measurement: "10%"
- Smiles Code: "CC(C)CCC[C@@H](C)[C@H]1CC[C@H]2C3=C(CC[C@]12C)[C@@]1(C)CC[C@H](O)[C@@H](C)[C@@H]1CC3"
  Readout: "viability at 88 h, 500 ug/ml"
  Reported Measurement: "6%"

====

Experiment: Cytotoxicity against mouse splenocytes assessed as cell viability at 3.9 ug/ml after 88 hrs by MTT assay
Assay type: cell-based, Splenocyte
Experimental Conditions: read-out: Activity

- Smiles Code: "O=C(O)c1cc(Br)c(Br)[nH]1"
  viability at 88 h, 3.9 ug/ml (%): 80
- Smiles Code: "CC(C)CCC[C@@H](C)[C@H]1CC[C@H]2C3=C(CC[C@]12C)[C@@]1(C)CC[C@H](O)[C@@H](C)[C@@H]1CC3"
  viability at 88 h, 3.9 ug/ml (%): 99

====

Overview of reported viability at 88 h, 1 ug/ml across a group of molecules:
Experiment: Cytotoxicity against mouse splenocytes assessed as cell viability at 1.0 ug/ml after 88 hrs by MTT assay
Type: cell-based, Splenocyte
Experimental Conditions: read-out: Activity

- Smiles Code: "O=C(O)c1cc(Br)c(Br)[nH]1"
  viability at 88 h, 1 ug/ml (%): 95
- Smiles Code: "CC(C)CCC[C@@H](C)[C@H]1CC[C@H]2C3=C(CC[C@]12C)[C@@]1(C)CC[C@H](O)[C@@H](C)[C@@H]1CC3"
  viability at 88 h, 1 ug/ml (%): 97

These data points were gathered from ChEMBL document CHEMBL1147293.
